Tested on: HCV replicon genotype 1A
Experiment: Cell-based HCV replicon assay, 1A
Conditions: replicon cells, 3 days, replicon RNA by real-time PCR
reportedMetric: IC50 (nM)
Please give a number only; it is taken to be in nM.

Some solved entries appear below for comparison.
compound="COC(=O)N[C@H](C(=O)N1CCC[C@H]1c1ncc(-c2ccc3c(c2)OC(C)C2=C3COc3cc(-c4cnc([C@@H]5CCCN5C(=O)[C@@H](NC(=O)OC)C(C)C)[nH]4)ccc32)[nH]1)C(C)C (single isomer, unassigned) [Compound 14]" testsystem="HCV replicon genotype 1A" unitabbrev=nM observedmeasurement=0.0122
compound="COC(=O)N[C@H](C(=O)N1C[C@H](F)C[C@H]1c1ncc(-c2ccc3c(c2)OC(C2CC2)C2=C3COc3cc(-c4cnc([C@@H]5C[C@@H](F)CN5C(=O)[C@@H](NC(=O)OC)C(C)C)[nH]4)ccc32)[nH]1)C(C)C (single isomer, unassigned) [Compound 20]" testsystem="HCV replicon genotype 1A" unitabbrev=nM observedmeasurement=0.0866
compound="COC(=O)N[C@H](C(=O)N1CCC[C@H]1c1ncc(-c2ccc3c(c2)OC(c2ccccc2)C2=C3COc3cc(-c4cnc([C@@H]5CCCN5C(=O)[C@@H](NC(=O)OC)C(C)C)[nH]4)ccc32)[nH]1)C(C)C (single isomer, unassigned) [Compound 8]" testsystem="HCV replicon genotype 1A" unitabbrev=nM observedmeasurement=0.0337
compound="COC(=O)N[C@H](C(=O)N1CCC[C@H]1c1ncc(-c2ccc3c(c2)OC(c2ccccc2)C2=C3COc3cc(-c4cnc([C@@H]5CCCN5C(=O)[C@@H](NC(=O)OC)C(C)C)[nH]4)ccc32)[nH]1)C(C)C (single isomer, unassigned) [Compound 9]" testsystem="HCV replicon genotype 1A" unitabbrev=nM observedmeasurement=0.0099

What the record says about COC(=O)N[C@H](C(=O)N1CCC[C@H]1c1ncc(-c2ccc3c(c2)OC(C2CC2)C2=C3COc3cc(-c4cnc([C@@H]5CCCN5C(=O)[C@@H](NC(=O)OC)C(C)C)[nH]4)ccc32)[nH]1)C(C)C (single isomer, unassigned) [Compound 17] : IC50 is 0.0115

* * *

The compounds listed here are annotated with their IC50.
System: HCV replicon 1A Y93H
Test: Cell-based HCV replicon assay, 1A Y93H
Conditions: read-out: 1A Y93H IC50; replicon cells, 3 days, replicon RNA by real-time PCR
Protocol: To measure cell-based anti-HCV activity of selected compounds of the present invention two complimentary assays were employed. […] The replicon RNA level was measured using real time PCR (TaqMan® EZ RT-PCR, Applied Biosystems 403028) with the following primers and probes: […] The amount of HCV replicon RNA per cell is quantified using a linear regression curve for a known nanogram (ng) amount of HCV replicon total RNA. […]
Please report the result as a number followed by the unit.

Some compounds with known IC50 results, for comparison:
compound="COC(=O)N[C@H](C(=O)N1CCC[C@H]1c1ncc(-c2ccc3c(c2)OC(C2CC2)C2=C3COc3cc(-c4cnc([C@@H]5CCCN5C(=O)[C@@H](NC(=O)OC)C(C)C)[nH]4)ccc32)[nH]1)C(C)C (single isomer, unassigned) [Compound 18]" reportedmetric=IC50 observedmeasurement="14.3 nM"
compound="COC(=O)N[C@H](C(=O)N1CCC[C@H]1c1ncc(-c2ccc3c(c2)OC(C)C2=C3COc3cc(-c4cnc([C@@H]5CCCN5C(=O)[C@@H](NC(=O)OC)C(C)C)[nH]4)ccc32)[nH]1)C(C)C (single isomer, unassigned) [Compound 15]" reportedmetric=IC50 observedmeasurement="127 nM"
compound="COC(=O)N[C@H](C(=O)N1CCC[C@H]1c1ncc(-c2ccc3c(c2)OC(C2CC2)C2=C3COc3cc(-c4cnc([C@@H]5CCCN5C(=O)[C@@H](NC(=O)OC)C(C)C)[nH]4)ccc32)[nH]1)C(C)C (single isomer, unassigned) [Compound 17]" reportedmetric=IC50 observedmeasurement="57.9 nM"
compound="COC(=O)N[C@H](C(=O)N1CCC[C@H]1c1ncc(-c2ccc3c(c2)OC(C2CC2)C2=C3COc3cc(-c4cnc([C@@H]5CCCN5C(=O)[C@@H](NC(=O)OC)C(C)C)[nH]4)ccc32)[nH]1)C(C)C (single isomer, unassigned) [Compound 16]" reportedmetric=IC50 observedmeasurement="6.31 nM"

In plain terms, COC(=O)N[C@H](C(=O)N1CCC[C@H]1c1ncc(-c2ccc3c(c2)OC(C)C2=C3COc3cc(-c4cnc([C@@H]5CCCN5C(=O)[C@@H](NC(=O)OC)C(C)C)[nH]4)ccc32)[nH]1)C(C)C (single isomer, unassigned) [Compound 14] has a documented IC50 of 31.8 nM

Recorded result, COC(=O)N[C@H](C(=O)N1CCC[C@H]1c1ncc(-c2ccc3c(c2)OC(C)C2=C3COc3cc(-c4cnc([C@@H]5CCCN5C(=O)[C@@H](NC(=O)OC)C(C)C)[nH]4)ccc32)[nH]1)C(C)C (single isomer, unassigned) [Compound 13] , IC50: 23.8 nM
